# STUDY TARGET: Carbonic anhydrase 2 (Homo sapiens, UniProt P00918)
# METHOD DESCRIPTION: Inhibition of human erythrocytes CA2 using 4-nitrophenylacetate as substrate by esterase assay
# PROTOCOL CONDITIONS: read-out: Ki

SMILES	Ki / µM
Cn1ccc(=O)n(C)c1=O	166
CC(=O)n1cc(Br)c(=O)[nH]c1=O	778
CS(=O)(=O)n1cc(Br)c(=O)[nH]c1=O	645
Cc1ccc(S(=O)(=O)n2cc(Br)c(=O)[nH]c2=O)cc1	28.9

====

Let's look at some molecules and their measured pKi.
# STUDY TARGET: Carbonic anhydrase 1 (Homo sapiens, UniProt P00915)
# Sequence (P00915 whole entry): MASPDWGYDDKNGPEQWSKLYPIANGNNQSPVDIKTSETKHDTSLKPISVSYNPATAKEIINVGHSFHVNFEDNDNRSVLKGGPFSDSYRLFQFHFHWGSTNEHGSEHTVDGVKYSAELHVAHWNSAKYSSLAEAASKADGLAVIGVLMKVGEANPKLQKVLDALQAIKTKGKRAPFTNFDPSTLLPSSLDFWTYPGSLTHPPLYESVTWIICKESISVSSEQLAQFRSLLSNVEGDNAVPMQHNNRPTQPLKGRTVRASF
pKi: −log10 of the molar value.
MEASURED ENDPOINT: pKi

SMILES	STUDY TARGET	RECORDED MEASUREMENT
CS(=O)(=O)n1cc(Br)c(=O)[nH]c1=O	Carbonic anhydrase 1 (Homo sapiens, UniProt P00915)	3.37
Cc1cc(O)nc(O)n1	Carbonic anhydrase 1 (Homo sapiens, UniProt P00915)	4.24
Cc1ccc(S(=O)(=O)n2cc(Br)c(=O)[nH]c2=O)cc1	Carbonic anhydrase 1 (Homo sapiens, UniProt P00915)	4.97
CC(=O)n1cc(Br)c(=O)[nH]c1=O	Carbonic anhydrase 1 (Homo sapiens, UniProt P00915)	3.33

Reference source: ChEMBL document CHEMBL3600346
